Recorded values, source patent US6143759A.

biological target: PDE4; test: Inhibition of PDE isoenzymes: PDE4 (cAMP-specific), cytosol of human polymorphonuclear leukocytes, cAMP as substrate; assay type: biochemical; details: cytosol of human PMNL; 0.5 μM cAMP; motapizone (1 μM) present; pH 7.4, 37° C., 15 min
Structures can show the parent of a compound that is named as a salt.
Each item that follows carries a reported PDE4 -log IC50.
# number only, unit mol/l dropped from output

Worked set:
molecule	measured_on	value_unit	PDE4 -log IC50
CCOc1cc2c(cc1OCC)[C@@H]1CN(C)CC[C@@H]1N=C2c1ccc(-c2nn[nH]n2)cc1 (single isomer, unassigned)	PDE4	mol/l	7.44
CCOc1cc2c(cc1OCC)[C@@H]1CN(C)CC[C@@H]1N=C2c1ccc(-c2nnn(C)n2)cc1 (single isomer, unassigned) [Compound 6, hydrochloride]	PDE4	mol/l	7.26
COc1ccc(Cn2nnc(-c3ccc(C4=N[C@H]5CCN(C)C[C@H]5c5cc(OC)c(OC)cc54)cc3)n2)cc1 (single isomer, unassigned) [Compound 7, hydrochloride]	PDE4	mol/l	6.74

Which PDE4 -log IC50 is reported for this molecule? CCOc1cc2c(cc1OCC)[C@@H]1CN(C)CC[C@@H]1N=C2c1ccc(-c2nnn(Cc3ccc(OC)cc3)n2)cc1 (single isomer, unassigned) [Compound 5, hydrochloride]
8.03

// PDE4 -log IC50 lookup, key: CCOc1cc2c(cc1OC)C(c1cccc(-c3nnn(CC)n3)c1)=N[C@H]1CCN(C)C[C@@H]21 (single isomer, unassigned) [Compound 12, hydrochloride]
7.82

----------
Readings of PDE4 -log IC50 for the listed molecules
target: PDE4; experiment: Inhibition of PDE isoenzymes: PDE4 (cAMP-specific), cytosol of human polymorphonuclear leukocytes, cAMP as substrate; type: biochemical; settings: cytosol of human PMNL; 0.5 μM cAMP; motapizone (1 μM) present; pH 7.4, 37° C., 15 min
Where a name gives a salt, the structure may show the parent alone.
Numbers only here, please. The scale is mol/l.

Here are 5 molecules together with their reported answers.
molecule	PDE4 -log IC50 / mol/l
CCCn1nnc(-c2ccc(C3=N[C@H]4CCN(C)C[C@H]4c4cc(OCC)c(OC)cc43)cc2)n1 (single isomer, unassigned) [Compound 16, hydrochloride]	7.94
CCOc1cc2c(cc1OCC)[C@@H]1CN(C)CC[C@@H]1N=C2c1cccc(-c2nnn(CC)n2)c1 (single isomer, unassigned) [Compound 11, hydrochloride]	7.40
CCOc1cc2c(cc1OCC)[C@@H]1CN(C)CC[C@@H]1N=C2c1ccc(-c2nnn(CC)n2)cc1 (single isomer, unassigned) [Compound 3, hydrochloride]	7.64
CCOc1cc2c(cc1OC)C(c1ccc(-c3nn[nH]n3)cc1)=N[C@H]1CCN(C)C[C@@H]21 (single isomer, unassigned)	7.81
CCOc1cc2c(cc1OCC)[C@@H]1CN(C)CC[C@@H]1N=C2c1ccc(-c2nnn(CC3CCCCC3)n2)cc1 (single isomer, unassigned) [Compound 8, hydrochloride]	7.64

What value of PDE4 -log IC50 has been recorded for this entry: COc1cc2c(cc1OC)[C@@H]1CN(C)CC[C@@H]1N=C2c1ccc(-c2nn[nH]n2)cc1 (single isomer, unassigned)
6.42

Form field: reported PDE4 -log IC50 of CCOc1cc2c(cc1OC)[C@@H]1CN(C)CC[C@@H]1N=C2c1ccc(-c2nnn(CC)n2)cc1 (single isomer, unassigned) [Compound 10, hydrochloride]
6.08

Item under review: CCOc1cc2c(cc1OC)C(c1ccc(-c3nnn(CC)n3)cc1)=N[C@H]1CCN(C)C[C@@H]21 (single isomer, unassigned) . Reported PDE4 -log IC50?
7.96

Value lookup for PDE4 -log IC50; key = CCCCCCn1nnc(-c2ccc(C3=N[C@H]4CCN(C)C[C@H]4c4cc(OCC)c(OC)cc43)cc2)n1 (single isomer, unassigned) [Compound 15, hydrochloride]
8.24

For the molecule shown here, CCn1nnc(-c2ccc(C3=N[C@H]4CCN(C)C[C@H]4c4cc(OC)c(OC)cc43)cc2)n1 (single isomer, unassigned) [Compound 2, hydrochloride] , give the reported PDE4 -log IC50.
6.13

// PDE4 -log IC50 lookup, key: COc1cc2c(cc1OC)[C@@H]1CN(C)CC[C@@H]1N=C2c1ccc(-c2nnn(C)n2)cc1 (single isomer, unassigned)
5.92

----------
biological target: PDE3 (Homo sapiens); construct: were investigated in homogenates of human blood platelets; from tissue; host or cells: homogenates of human blood platelets; assay: Inhibition of PDE isoenzymes: PDE3 (cGMP-inhibited), homogenates of human blood platelets; assay type: biochemical; details: cAMP or cGMP as substrate, 0.5 μM, pH 7.4, 37° C., 15 min, read-out: PDE3 -log IC50 (converted)
Sequence (Q14432 whole entry): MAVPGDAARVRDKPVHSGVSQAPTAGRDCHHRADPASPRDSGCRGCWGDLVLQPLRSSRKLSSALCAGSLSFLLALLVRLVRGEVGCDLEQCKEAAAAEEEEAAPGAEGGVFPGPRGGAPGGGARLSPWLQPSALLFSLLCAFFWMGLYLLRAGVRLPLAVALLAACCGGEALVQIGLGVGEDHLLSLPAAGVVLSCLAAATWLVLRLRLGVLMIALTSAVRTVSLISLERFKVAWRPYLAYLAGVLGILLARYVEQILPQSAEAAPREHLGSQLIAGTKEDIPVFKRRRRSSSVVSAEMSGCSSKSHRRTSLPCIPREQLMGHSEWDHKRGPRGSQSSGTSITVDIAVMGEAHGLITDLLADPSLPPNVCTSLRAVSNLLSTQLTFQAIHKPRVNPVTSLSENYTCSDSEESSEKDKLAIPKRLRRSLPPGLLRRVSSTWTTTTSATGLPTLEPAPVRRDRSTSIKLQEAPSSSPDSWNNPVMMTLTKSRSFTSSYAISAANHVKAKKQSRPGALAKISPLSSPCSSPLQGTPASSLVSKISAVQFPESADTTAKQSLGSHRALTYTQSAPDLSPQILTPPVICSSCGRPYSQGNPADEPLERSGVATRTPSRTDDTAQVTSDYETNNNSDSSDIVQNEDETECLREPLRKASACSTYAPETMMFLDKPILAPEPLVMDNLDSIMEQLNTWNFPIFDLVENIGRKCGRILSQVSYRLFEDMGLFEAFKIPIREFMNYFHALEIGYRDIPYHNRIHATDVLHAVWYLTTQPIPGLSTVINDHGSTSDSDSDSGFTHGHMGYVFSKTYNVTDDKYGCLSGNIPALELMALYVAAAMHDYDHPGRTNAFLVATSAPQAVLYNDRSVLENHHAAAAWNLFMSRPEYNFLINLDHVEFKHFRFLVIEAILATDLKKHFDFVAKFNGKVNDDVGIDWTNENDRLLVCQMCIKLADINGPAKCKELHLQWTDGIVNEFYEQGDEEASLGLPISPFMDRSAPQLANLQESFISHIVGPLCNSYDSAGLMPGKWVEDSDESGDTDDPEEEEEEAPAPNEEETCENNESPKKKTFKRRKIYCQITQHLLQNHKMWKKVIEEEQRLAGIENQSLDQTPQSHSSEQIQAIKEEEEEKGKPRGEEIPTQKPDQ
Where a name gives a salt, the structure may show the parent alone.
reported_endpoint: IC50 (nM)
Respond with the bare value in nM.

Some solved entries appear below for comparison.
compound	measured_on	IC50 (nM)
CCOc1cc2c(cc1OC)C(c1cccc(-c3nnn(CC)n3)c1)=N[C@H]1CCN(C)C[C@@H]21 (single isomer, unassigned) [Compound 12, hydrochloride]	PDE3 (Homo sapiens)	708
CCOc1cc2c(cc1OCC)[C@@H]1CN(C)CC[C@@H]1N=C2c1ccc(-c2nnn(CC)n2)cc1 (single isomer, unassigned) [Compound 3, hydrochloride]	PDE3 (Homo sapiens)	209

Hello, I am looking for reported IC50 with PDE3 (Homo sapiens) for CCOc1cc2c(cc1OCC)[C@@H]1CN(C)CC[C@@H]1N=C2c1ccc(-c2nnn(CC3CCCCC3)n2)cc1 (single isomer, unassigned) [Compound 8, hydrochloride] . Could you help?
309
